# Pigweed plant response rating values compiled below
System: pigweed (Amaranthus retroflexus)
Test: Test A postemergence, pigweed
Type: in vivo
Details: Postemergence, 500 g ai/ha; visual injury vs untreated controls after approx. 10 days; 0 to 100 scale (0 no effect, 100 complete control)
Reply: number alone, nothing else.

>>> df
                            molecule_smiles                     observable  experimental_result
0  Cc1cc(C)c(C(=O)N2CCC(CC(F)(F)F)CC2)cc1NS(=O)(=O)C(F)(F)F  Pigweed plant response rating                   60
1  Cc1c(NS(=O)(=O)C(F)(F)F)cc(C(=O)N2CCC3(CC2)OCCCO3)c(C)c1F  Pigweed plant response rating                   90
2  Cc1cc(C)c(C2=NOC3(CCOCC3)C2)cc1NS(=O)(=O)C(F)(F)F  Pigweed plant response rating                   90

Kindly consider the entry below.
Query: Need Pigweed plant response rating, item `Cc1cc(C)c(-c2ccnn(CC(F)(F)F)c2=O)cc1NS(=O)(=O)C(F)(F)F`
Reply: 50

====

Consider the following molecules and their measured Pigweed plant response rating readings.
Test system: pigweed (Amaranthus retroflexus)
Experiment: Test A postemergence, pigweed
Type: in vivo
Conditions: Postemergence, 500 g ai/ha; visual injury vs untreated controls after approx. 10 days; 0 to 100 scale (0 no effect, 100 complete control)

Query: Lab request: please report Pigweed plant response rating under test system pigweed (Amaranthus retroflexus) for `Cc1cc(C)c(C(=O)N2CCC3(CCCCC3)CC2)cc1NS(=O)(=O)C(F)(F)F`
Reply: 0

Query: Same read-out for Cc1cc(C)c(C2=NOC3CCCC23)cc1NS(=O)(=O)C(F)(F)F (stereo not shown) [Compound 164] ?
Reply: 90

Query: Could you do the same for `Cc1cc(Cl)c(N(S(=O)(=O)C(F)(F)F)S(=O)(=O)C(F)(F)F)cc1C(=O)N1CCC(Cl)CC1` , please?
Reply: 90

Query: Could you do the same for `CCn1nc(C)cc(-c2cc(NS(=O)(=O)C(F)(F)F)c(C)cc2C)c1=O` , please?
Reply: 50

Query: What would you report for `Cc1cc(C)c(-c2ccnn(C)c2=O)cc1NS(=O)(=O)C(F)(F)F` ?
Reply: 70

====

Attribute: Foxtail, Giant plant response rating
System: Foxtail, Giant (giant foxtail, Setaria faberi)
Experiment: Test A preemergence, Foxtail, Giant
Type: in vivo
Settings: Preemergence, 125 g ai/ha; visual injury on 0 to 100 scale (0 no effect, 100 complete control), approximately 10 days
Keep it simple and answer with nothing but the number.

Some solved cases for reference:
>>> print(df.to_string())
                                   molecule                            observable  experimental_result
0  Cc1cc(C)c(N(S(=O)(=O)C(F)(F)F)S(=O)(=O)C(F)(F)F)cc1C(=O)N(C)CC1CC1 [Compound 169]  Foxtail, Giant plant response rating                   20
1  Cc1cc(C)c(-c2ccnn(C(C)C)c2=O)cc1NS(=O)(=O)C(F)(F)F [Compound 78]  Foxtail, Giant plant response rating                  100
2  Cc1cc(Cl)c(NS(=O)(=O)C(F)(F)F)cc1C(=O)N1CCSCC1 [Compound 26]  Foxtail, Giant plant response rating                  100

Kindly review the next molecule as well.
Query: Can you share its Foxtail, Giant plant response rating? I mean this molecule: Cc1cc(C)c(N(S(=O)(=O)C(F)(F)F)S(=O)(=O)C(F)(F)F)cc1-c1ccnn(C)c1=O [Compound 76]
Reply: 100
